Would you mind telling me the reported Bliss excess of each entry?
# Tested on: NCI-H1341 (Small Cell Lung Carcinoma);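 further: after 72 h of two-drug dosing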
# method notes: Bliss excess, mean over the matrix (fraction); higher = more synergy

Below, 2 molecules whose answers are already recorded.
| molecule | Bliss excess |
| --- | --- |
| CC(=O)c1c(C)c2cnc(Nc3ccc(N4CCNCC4)cn3)nc2n(C2CCCC2)c1=O [Palbociclib] + CC1(C)CCC(CN2CCN(c3ccc(C(=O)NS(=O)(=O)c4ccc(NCC5CCOCC5)c([N+](=O)[O-])c4)c(Oc4cnc5[nH]ccc5c4)c3)CC2)=C(c2ccc(Cl)cc2)C1 [Venetoclax] (first compound max 10 µM, 7x7, partner max 1 µM) | 0.0245 |
| CN(CCO)CC[C@H](CSc1ccccc1)Nc1ccc(S(=O)(=O)NC(=O)c2ccc(N3CCC([C@@H](O)c4ccccc4-c4ccc(Cl)cc4)CC3)cc2)cc1S(=O)(=O)C(F)(F)F [AZD4320] + C[C@@H]1COCCN1C2=NC(=NC(=C2)C3(CC3)[S@](=N)(=O)C)C4=C5C=CNC5=NC=C4 [AZD6738] (first compound max 1 µM, 7x7, partner max 10 µM) | -0.0017 |

# evaluate next
Please fill in: Bliss excess reported for COc1cc2ncnc(Nc3ccc(F)c(Cl)c3)c2cc1OCCCN1CCOCC1 [Gefitinib] + CC(C)n1c(=O)n(C)c2cnc3cc(F)c(-c4ccc(OCCCN5CCCCC5)nc4)cc3c21 [AZD1390] (first compound max 10 µM, 7x7, partner max 0.3 µM) = -0.0399
